# target-of-assay: human PILRA R78 on cells (human, UniProt Q9UKJ1 20-303)
# Sequence (Q9UKJ1 20-303 limits assumed): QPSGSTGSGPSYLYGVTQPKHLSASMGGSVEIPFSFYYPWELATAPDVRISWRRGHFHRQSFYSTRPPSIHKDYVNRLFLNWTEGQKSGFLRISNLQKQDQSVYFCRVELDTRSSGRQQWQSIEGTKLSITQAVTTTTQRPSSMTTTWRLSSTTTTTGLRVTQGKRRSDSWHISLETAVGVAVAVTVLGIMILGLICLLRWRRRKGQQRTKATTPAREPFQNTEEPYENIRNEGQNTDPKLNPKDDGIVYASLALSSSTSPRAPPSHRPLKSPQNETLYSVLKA
# protocol-summary: cell-based or functional assay
measurement-kind: pSTAT3 S727 induction, Fold Over Background
Write the numeric value and follow it with the unit.

{"binder": "Anti-PILRA antibody clone 12 (antibody, V domains shown, Humanized; also called Ab.12) VH: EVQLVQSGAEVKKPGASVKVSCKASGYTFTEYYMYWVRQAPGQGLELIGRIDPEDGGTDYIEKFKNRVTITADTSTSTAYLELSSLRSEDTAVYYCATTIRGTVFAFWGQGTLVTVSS VL: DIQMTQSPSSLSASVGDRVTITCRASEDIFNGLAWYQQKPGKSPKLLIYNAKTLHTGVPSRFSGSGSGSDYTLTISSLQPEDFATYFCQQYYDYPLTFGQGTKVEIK", "result": "21.4 fold"}
{"binder": "Anti-PILRA antibody clone 23 (antibody, V domains shown, Humanized; also called Ab.23) VH: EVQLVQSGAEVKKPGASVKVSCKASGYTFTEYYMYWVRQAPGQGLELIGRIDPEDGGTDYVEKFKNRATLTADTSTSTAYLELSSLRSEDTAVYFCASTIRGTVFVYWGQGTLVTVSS VL: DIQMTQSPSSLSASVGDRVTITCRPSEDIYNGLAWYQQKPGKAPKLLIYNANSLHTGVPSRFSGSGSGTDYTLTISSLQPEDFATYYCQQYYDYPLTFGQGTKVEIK", "result": "28.5 fold"}

Q: Report pSTAT3 S727 induction, Fold Over Background for Anti-PILRA antibody clone 7 (antibody, V domains shown) VH: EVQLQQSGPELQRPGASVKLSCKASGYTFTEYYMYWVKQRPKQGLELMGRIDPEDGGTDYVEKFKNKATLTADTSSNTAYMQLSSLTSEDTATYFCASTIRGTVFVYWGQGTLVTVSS VL: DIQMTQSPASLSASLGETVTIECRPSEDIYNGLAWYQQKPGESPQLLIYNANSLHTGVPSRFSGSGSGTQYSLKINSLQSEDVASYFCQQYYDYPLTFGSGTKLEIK please.
A: 28.9 fold
